// reported Tmax per item
Assay: Pharmacokinetic study, plasma and brain PK parameters after I.P. dosing
Format: in vivo, mouse
Conditions: mouse, ip; plasma; 25 mg/Kg I.P.; read-out: Tmax (plasma)
State just the number; it will be interpreted in h.

- Compound: "O=C(CO)N1CCc2c(sc3c(Cl)c(Cl)cc(-c4cn[nH]c4)c23)C1 [Compound 63]"
  Result Unit: "h"
  Tmax: 2

Query (compound): Cn1cc(-c2cc(Cl)c(Cl)c3sc4c(c23)CN(C(=O)CO)CC4)cn1 [Compound 48] ; field requested: Tmax
1

---

Each entry below carries its recorded CLint scaled.
Assay: Metabolic stability in mouse liver microsomes
Conditions: mouse, liver microsomes

Here is how some molecules turned out for CLint scaled.
- Molecule: "Cn1cc(-c2cc(Cl)c(Cl)c3sc4c(c23)CN(C(=O)CN)CC4)cn1 [Compound 54]"
  Test Readout: "CLint scaled"
  Measured Value: "< 38 mL/min/kg"
- Molecule: "Cn1cc(-c2cc(Cl)c(Cl)c3oc4c(c23)CN(C(=O)CN)CC4)cn1 [Compound 33]"
  Test Readout: "CLint scaled"
  Measured Value: "38.5 mL/min/kg"
- Molecule: "Cn1cc(-c2cc(Cl)c(Cl)c3sc4c(c23)CN(C(=O)CO)CC4)cn1 [Compound 48]"
  Test Readout: "CLint scaled"
  Measured Value: "87.2 mL/min/kg"
- Molecule: "C[C@]12CC[C@H]3[C@@H](CCC4=CC(=O)CC[C@@]43C)[C@@H]1CC[C@@H]2O [Testosterone, reference compound]"
  Test Readout: "CLint scaled"
  Measured Value: "1490 mL/min/kg"
- Molecule: "Cn1cc(-c2cc(Cl)c(Cl)c3sc4c(c23)CCN(C(=O)CN)C4)cn1 [Compound 74]"
  Test Readout: "CLint scaled"
  Measured Value: "< 38 mL/min/kg"
- Molecule: "Cn1ccc(-c2cc(Cl)c(Cl)c3oc4c(c23)CN(C(=O)CO)CC4)n1 [Compound 24]"
  Test Readout: "CLint scaled"
  Measured Value: "< 23.1 mL/min/kg"

Now take the following molecule into account.
I would be grateful if you could share the reported CLint scaled for Cn1cc(-c2cc(Cl)c(Cl)c3c2c2c(n3C)CCN(C(=O)CN)C2)cn1 [Compound 11] .
< 38 mL/min/kg

---

Biological target: h-cGAS (Homo sapiens, UniProt Q8N884)
Sequence (Q8N884 whole entry): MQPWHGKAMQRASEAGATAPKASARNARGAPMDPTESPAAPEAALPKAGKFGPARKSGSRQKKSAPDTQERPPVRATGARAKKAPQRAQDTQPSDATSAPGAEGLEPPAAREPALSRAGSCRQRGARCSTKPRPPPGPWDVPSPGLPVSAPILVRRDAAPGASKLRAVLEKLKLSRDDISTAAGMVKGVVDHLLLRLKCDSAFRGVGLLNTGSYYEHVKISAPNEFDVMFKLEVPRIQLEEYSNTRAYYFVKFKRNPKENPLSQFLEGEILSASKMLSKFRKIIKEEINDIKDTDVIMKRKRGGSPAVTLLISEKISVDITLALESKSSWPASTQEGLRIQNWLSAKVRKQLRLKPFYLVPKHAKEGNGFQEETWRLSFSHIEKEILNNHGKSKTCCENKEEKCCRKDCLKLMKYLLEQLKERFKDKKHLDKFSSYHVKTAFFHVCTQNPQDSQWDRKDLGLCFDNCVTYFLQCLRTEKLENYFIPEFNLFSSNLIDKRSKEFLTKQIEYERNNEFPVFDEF
Test: Cell-free human cGAS enzyme inhibition assay (ATP depletion, Kinase-Glo Max)
Type: biochemical
Settings: 3 h; read-out: h-cGAS, conc. 1 μM
# key: entry, value: inhibition at 1 µM

// known answers, use as guide
- Molecule: "O=C(CO)N1CCc2[nH]c3c(Cl)c(Cl)cc(O)c3c2C1"
  Test Readout: "inhibition at 1 µM"
  Measured Value: "50 to 74%"
- Molecule: "NCC(=O)N1CCc2c(sc3c(Cl)c(Cl)cc(-n4cccn4)c23)C1"
  Test Readout: "inhibition at 1 µM"
  Measured Value: "25 to 49%"
- Molecule: "NCC(=O)N1CCc2c(sc3c(Cl)c(Cl)cc(-c4cc[nH]n4)c23)C1"
  Test Readout: "inhibition at 1 µM"
  Measured Value: "25 to 49%"
- Molecule: "Cn1c2c(c3c(-c4ccc(N)nc4)cc(Cl)c(Cl)c31)CN(C(=O)C1CCCN1)CC2 (stereo not drawn)"
  Test Readout: "inhibition at 1 µM"
  Measured Value: "25 to 49%"
- Molecule: "O=C(CO)N1CCc2oc3c(Cl)c(Cl)cc(-c4cc[nH]n4)c3c2C1"
  Test Readout: "inhibition at 1 µM"
  Measured Value: "25 to 49%"

What value of inhibition at 1 µM has been reported for the following molecule? Cn1ccc(-c2cc(Cl)c(Cl)c3sc4c(c23)CN(C(=O)CO)CC4)n1
50 to 74%

Would you mind telling me what inhibition at 1 µM value was observed for CN1c2c(Cl)c(Cl)cc(-c3cnn(C)c3)c2C2CN(C(=O)CN)CCC21 (stereo not drawn) ?
0 to 24%

Data request, read-out inhibition at 1 µM, for Cn1c2c(c3c(Br)cc(Cl)c(Cl)c31)CN(C(=O)CN)CC2
0 to 24%

// query inhibition at 1 µM value for entry Cn1ncc(-c2cc(Cl)c(Cl)c3sc4c(c23)CCN(C(=O)CN)C4)n1
25 to 49%

---

Test: Pharmacokinetic study, plasma and brain PK parameters after I.P. dosing
Assay type: in vivo, mouse
Conditions: mouse, ip; brain; 25 mg/Kg I.P.; read-out: AUClast (Brain)
Experimental: To test pharmacokinetics, TDI-6570 ([…] solution in water containing 0.2% Tween 80) was administered to 8-weeks old CD-1 male mice (n=3 for each time point) intraperitoneally (IP) and both plasma (EDTA-K2) and brain tissues were collected at various time points (0.5, 2, 4, 8 and 24 hours post drug administration). Transcardial perfusion were performed with saline prior to brain collection. Bioanalysis of brain tissue and plasma extracts were performed by LC-MS/MS.
Test Readout: AUC(0-t) (ng·h/mL)
Dear colleague, please return just the value in ng·h/mL, with no unit written.

- Molecule: "O=C(CO)N1CCc2c(sc3c(Cl)c(Cl)cc(-c4cn[nH]c4)c23)C1 [Compound 63]"
  Result Unit: "ng·h/mL"
  AUC(0-t): 33900

Lab note: next molecule to report on.
Looking for the measured AUC(0-t) of Cn1cc(-c2cc(Cl)c(Cl)c3sc4c(c23)CN(C(=O)CO)CC4)cn1 [Compound 48] , can you help?
127000

---

Experiment: Metabolic stability in human liver microsomes
Settings: human, liver microsomes
Entries and their microsomal CLint values follow.

These solved cases illustrate the format of a correct answer.
- Smiles Input: "Cn1cc(-c2cc(Cl)c(Cl)c3sc4c(c23)CCN(C(=O)CN)C4)cn1"
  microsomal CLint: "< 9.6 µL/min/mg"
- Smiles Input: "Cn1cc(-c2cc(Cl)c(Cl)c3sc4c(c23)CN(C(=O)CN)CC4)cn1"
  microsomal CLint: "< 9.6 µL/min/mg"
- Smiles Input: "Cn1cc(-c2cc(Cl)c(Cl)c3c2c2c(n3C)CCN(C(=O)CN)C2)cn1"
  microsomal CLint: "< 9.6 µL/min/mg"

Find the recorded microsomal CLint belonging to Cn1cc(-c2cc(Cl)c(Cl)c3oc4c(c23)CN(C(=O)CN)CC4)cn1 and report it.
< 9.6 µL/min/mg

---

Target: UniProtKB Q8C6L5
Sequence (Q8C6L5 whole entry): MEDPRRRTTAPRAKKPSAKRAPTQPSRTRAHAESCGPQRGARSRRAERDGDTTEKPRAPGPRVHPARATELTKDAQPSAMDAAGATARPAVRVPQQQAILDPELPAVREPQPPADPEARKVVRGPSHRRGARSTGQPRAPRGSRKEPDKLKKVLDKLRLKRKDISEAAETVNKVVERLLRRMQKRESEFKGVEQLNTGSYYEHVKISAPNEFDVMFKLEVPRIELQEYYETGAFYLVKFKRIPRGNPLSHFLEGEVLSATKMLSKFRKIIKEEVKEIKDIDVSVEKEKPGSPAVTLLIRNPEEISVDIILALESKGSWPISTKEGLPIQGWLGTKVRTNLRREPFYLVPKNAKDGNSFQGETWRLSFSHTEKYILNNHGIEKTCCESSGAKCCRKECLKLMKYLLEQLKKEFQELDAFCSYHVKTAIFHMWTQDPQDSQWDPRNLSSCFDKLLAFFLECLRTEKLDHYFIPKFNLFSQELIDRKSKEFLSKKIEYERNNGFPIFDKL
Assay: Cell-free mouse cGAS enzyme inhibition assay (ATP depletion, Kinase-Glo Max)
Format: biochemical
Conditions: 1 h; read-out: m-cGAS, conc. 1 μM
Listed here are compounds together with their documented inhibition at 1 µM.

- Smiles Input: "NCC(=O)N1CCc2c(sc3c(Cl)c(Cl)cc(-c4cc[nH]n4)c23)C1"
  Test Readout: "inhibition at 1 µM"
  Measured Value: "25 to 49%"
- Smiles Input: "NCC(=O)N1CCc2c(sc3c(Cl)c(Cl)cc(-c4ccco4)c23)C1"
  Test Readout: "inhibition at 1 µM"
  Measured Value: "25 to 49%"
- Smiles Input: "Cn1cc(-c2cc(Cl)c(Cl)c3sc4c(c23)CN(C(=O)CN)CC4)cn1"
  Test Readout: "inhibition at 1 µM"
  Measured Value: "0 to 24%"
- Smiles Input: "O=C(CO)N1CCc2c(sc3c(Cl)c(Cl)cc(-c4cn[nH]c4)c23)C1"
  Test Readout: "inhibition at 1 µM"
  Measured Value: "25 to 49%"
- Smiles Input: "O=C(CO)N1CCc2c(sc3c(Cl)c(Cl)cc(-c4cncnc4)c23)C1"
  Test Readout: "inhibition at 1 µM"
  Measured Value: "0 to 24%"

Entry Cn1cnc(-c2cc(Cl)c(Cl)c3sc4c(c23)CCN(C(=O)CN)C4)c1 has what inhibition at 1 µM?
0 to 24%

For the compound NCC(=O)N1CCc2oc3c(Cl)c(Cl)cc(-c4cncnc4)c3c2C1 , what inhibition at 1 µM is on record?
50 to 74%

Entry Cn1ccc(-c2cc(Cl)c(Cl)c3sc4c(c23)CCN(C(=O)CN)C4)n1 : reported inhibition at 1 µM = ?
25 to 49%

Looking for the measured inhibition at 1 µM of NCC(=O)N1CCc2c(sc3c(Cl)c(Cl)cc(-n4cccn4)c23)C1 , can you help?
0 to 24%

// query inhibition at 1 µM value for entry NCC(=O)N1CCc2c(sc3c(Cl)c(Cl)cc(-c4nccs4)c23)C1
0 to 24%

I have this compound here, NCC(=O)N1CCc2c(sc3c(Cl)c(Cl)cc(-c4ccsc4)c23)C1 , and I need its recorded inhibition at 1 µM.
0 to 24%

Recorded inhibition at 1 µM for NCC(=O)N1CCc2c(sc3c(Cl)c(Cl)cc(-c4ccccn4)c23)C1 , please?
0 to 24%

// query inhibition at 1 µM value for entry NCC(=O)N1CCc2c(sc3c(Cl)c(Cl)cc(-c4cncs4)c23)C1
25 to 49%

Entry Cn1cc(-c2cc(Cl)c(Cl)c3sc4c(c23)CCN(C(=O)CO)C4)cn1 has what inhibition at 1 µM?
25 to 49%

What inhibition at 1 µM value was documented for this compound, NCC(=O)N1CCc2c(sc3c(Cl)c(Cl)cc(-c4cccs4)c23)C1 ?
0 to 24%

What value of measured inhibition at 1 µM is listed for Cn1ccc(-c2cc(Cl)c(Cl)c3oc4c(c23)CN(C(=O)CO)CC4)n1 ?
0 to 24%

Requested read-out: inhibition at 1 µM. Entry: O=C(CO)N1CCc2sc3c(Cl)c(Cl)cc(-c4cncnc4)c3c2C1
0 to 24%

Which inhibition at 1 µM is reported for this compound? Cn1cc(-c2cc(Cl)c(Cl)c3oc4c(c23)CN(C(=O)CN)CC4)cn1
75 to 100%

Taken from patent US20250163052A1.
